Measurement protocol: Binding affinity to bacterial VIM-2 (unknown origin) assessed as dissociation constant by isothermal calorimetric assay
Parameters: species or system Bacteria
Parameter measured: Kd (nM)
Just the number please, in nM, no unit attached.

What measured Kd goes with O=C(O)[C@H](CCCn1c(-c2ccccc2)n[nH]c1=S)N(Cc1c[nH]cn1)Cc1c[nH]cn1 ?
700

###

Test system: Bacteria
Measurement protocol: Inhibition of bacterial NDM-1 (unknown origin) expressed in Escherichia coli EXPRESS BL21(DE3) assessed as inhibition constant by measuring rate of substrate hydrolysis at 100 uM by UV-visible spectrophotometry relative to control
Collected inhibition values appear next to each entry.
Answer in %, number only, no unit symbol.

Study these solved cases before continuing.
Molecular string	System under test	Result
Cn1cncc1CN(Cc1c[nH]cn1)[C@@H](CCCn1c(-c2ccccc2)n[nH]c1=S)C(=O)O	Bacteria	66
CC(C)(C)OC(=O)NCCCCn1c(-c2ccccc2)n[nH]c1=S	Bacteria	42
O=C(O)[C@H](CCCn1c(-c2ccccc2)n[nH]c1=S)N(Cc1cccnc1)Cc1cccnc1	Bacteria	67

Let's switch to this molecule now.
Would you kindly share the measured inhibition for O=C(O)[C@H](CCCn1c(-c2ccccc2)n[nH]c1=S)N(Cc1ccccc1)Cc1c[nH]cn1 ?
60
